- testTarget: Lysosomal alpha-glucosidase (Rattus norvegicus) (UniProt Q6P7A9)
- Sequence (Q6P7A9 whole entry): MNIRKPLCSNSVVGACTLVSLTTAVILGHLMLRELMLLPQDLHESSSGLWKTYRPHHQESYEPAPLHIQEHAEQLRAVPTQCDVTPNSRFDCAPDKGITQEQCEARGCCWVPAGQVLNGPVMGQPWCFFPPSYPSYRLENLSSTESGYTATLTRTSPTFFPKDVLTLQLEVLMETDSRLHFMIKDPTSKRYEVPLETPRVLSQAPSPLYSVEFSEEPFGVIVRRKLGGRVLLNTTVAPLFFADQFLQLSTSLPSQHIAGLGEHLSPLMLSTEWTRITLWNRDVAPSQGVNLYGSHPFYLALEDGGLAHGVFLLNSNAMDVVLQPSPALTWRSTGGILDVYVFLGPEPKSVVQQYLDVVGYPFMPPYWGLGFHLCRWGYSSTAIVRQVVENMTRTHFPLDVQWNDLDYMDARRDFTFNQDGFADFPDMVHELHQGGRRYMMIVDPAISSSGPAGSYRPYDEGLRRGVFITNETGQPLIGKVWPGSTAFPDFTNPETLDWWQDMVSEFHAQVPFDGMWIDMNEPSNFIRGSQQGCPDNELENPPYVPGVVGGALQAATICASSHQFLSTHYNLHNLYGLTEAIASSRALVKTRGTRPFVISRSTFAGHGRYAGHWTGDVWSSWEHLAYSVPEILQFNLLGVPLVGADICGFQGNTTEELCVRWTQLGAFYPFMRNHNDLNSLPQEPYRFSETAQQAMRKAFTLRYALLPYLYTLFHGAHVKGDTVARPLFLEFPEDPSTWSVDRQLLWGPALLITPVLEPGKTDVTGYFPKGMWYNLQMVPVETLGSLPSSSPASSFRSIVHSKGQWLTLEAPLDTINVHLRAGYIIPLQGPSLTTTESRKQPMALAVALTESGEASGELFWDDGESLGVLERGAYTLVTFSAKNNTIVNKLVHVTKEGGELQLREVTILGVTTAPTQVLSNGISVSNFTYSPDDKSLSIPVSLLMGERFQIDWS
- protocolNotes: Inhibition of rat intestinal alpha-glucosidase using para-nitrophenyl-alpha-D-glucopyranoside as substrate at 25 ug/ml incubated for 5 min prior to substrate addition measured after 5 min by spectrophotometric analysis
reportedMetric: inhibition (%)

> print(dat)
                              querysmiles  reported
1   COc1cc(/C=C/C(=O)c2cc3ccoc3cc2O)ccc1O      52.8
2  O=C(/C=C/c1ccc(O)c(O)c1)c1ccc2occc2c1O      61.5
3  COc1ccc(/C=C/C(=O)c2cc3ccoc3cc2O)cc1OC      89.3
4     O=C(/C=C/c1ccc(O)cc1)c1ccc2occc2c1O      65.7

I: COc1ccc(/C=C/C(=O)c2ccc3occc3c2O)c(OC)c1OC
II: COc1cc(/C=C/C(=O)c2ccc3occc3c2O)ccc1O
Q. For the pair I and II , which member has the lower inhibition number? Identify your pick by its label.
A. II
(II: 45%, I: 67.3%)

----------
- testTarget: Lysosomal alpha-glucosidase (Rattus norvegicus)
- protocolNotes: Inhibition of rat intestinal alpha-glucosidase using para-nitrophenyl-alpha-D-glucopyranoside as substrate at 25 ug/ml incubated for 5 min prior to substrate addition measured after 5 min by spectrophotometric analysis
reportedMetric: inhibition (%)

Examples with their reported inhibition follow.
> print(dat)
                           querysmiles                                testtarget  reportedmetric  unitssymbol  reported
1     O=C(/C=C/c1ccccc1)c1cc2ccoc2cc1O  Lysosomal alpha-glucosidase (Rattus norvegicus)      inhibition            %      67.6
2  O=C(/C=C/c1ccc(O)cc1)c1cc2ccoc2cc1O  Lysosomal alpha-glucosidase (Rattus norvegicus)      inhibition            %      8.77

P: COc1ccc(/C=C/C(=O)c2ccc3occc3c2O)cc1OC
Q: O=C(/C=C/c1ccccc1)c1ccc2occc2c1O
Q. Smaller inhibition value? Options are P and Q // output: label of the selected item
A. Q
(Q: 20.8%, P: 89.5%)

----------
- testTarget: Lysosomal alpha-glucosidase (Rattus norvegicus)
- protocolNotes: Inhibition of rat intestinal alpha-glucosidase using para-nitrophenyl-alpha-D-glucopyranoside as substrate at 25 ug/ml incubated for 5 min prior to substrate addition measured after 5 min by spectrophotometric analysis
reportedMetric: inhibition (%)

> print(dat)
                                querysmiles  reported
1      COc1ccc(/C=C/C(=O)c2cc3ccoc3cc2O)cc1      48.9
2  COc1cc(OC)c(OC)cc1/C=C/C(=O)c1cc2ccoc2cc1O        68

1: COc1ccc(/C=C/C(=O)c2ccc3occc3c2O)cc1
2: O=C(/C=C/c1ccc(O)c(O)c1)c1cc2ccoc2cc1O
Q. Thinking about recorded inhibition values, which is higher, 1 or 2 ? Reply with the label of the item you choose.
A. 1
